biological target: NDM-1 (Klebsiella pneumoniae, UniProt C7C422); experiment: biochemical; details: cleavage of imipenem (100 uM) by NDM-1; read-out: Ki, Imipenem
Sequence (C7C422 29-270, looked up, species assumed): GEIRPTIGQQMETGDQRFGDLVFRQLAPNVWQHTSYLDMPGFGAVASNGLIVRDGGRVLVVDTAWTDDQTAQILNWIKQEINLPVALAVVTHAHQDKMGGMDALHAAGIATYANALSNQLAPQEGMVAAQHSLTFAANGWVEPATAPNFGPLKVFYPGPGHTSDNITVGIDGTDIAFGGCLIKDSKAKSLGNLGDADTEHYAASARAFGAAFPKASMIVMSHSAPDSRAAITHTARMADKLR
pKi: −log10 of the molar value.
In this section we review reported pKi values for a set of compounds.

Previously resolved entries follow.
[[record]]
compound = "COc1ccc2c(c1C(=O)O)OB(O)[C@@H](Sc1nc(C(N)=O)cs1)C2"
value_measured = "< 7.00"

[[record]]
compound = "Nc1nnc(S[C@H]2Cc3ccc(-n4ccnn4)c(C(=O)O)c3OB2O)s1"
value_measured = "> 8.00"

[[record]]
compound = "COc1ccc2c(c1C(=O)O)OB(O)[C@@H](Sc1nnc(SC3CCNCC3)s1)C2"
value_measured = "7.00 to 8.00"

[[record]]
compound = "Nc1nnc(S[C@H]2Cc3cc(F)c(F)c(C(=O)O)c3OB2O)s1"
value_measured = "7.00 to 8.00"

[[record]]
compound = "COc1ccc2c(c1C(=O)O)OB(O)[C@@H](Sc1nnc(NC3CCNCC3)s1)C2"
value_measured = "> 8.00"


// switching to the query compound
Ask: I'm curious: which pKi was measured for COCc1ccc2c(c1C(=O)O)OB(O)[C@@H](Sc1nnc(N)s1)C2 tested on NDM-1 (Klebsiella pneumoniae, UniProt C7C422)?
Result: 7.00 to 8.00

* * *

molecular target: purified class A, C and D enzymes (Enterobacter cloacae); format: biochemical; details: purified P99/AmpC of ECL; nitrocefin reporter substrate
Sequence (P05364 21-381): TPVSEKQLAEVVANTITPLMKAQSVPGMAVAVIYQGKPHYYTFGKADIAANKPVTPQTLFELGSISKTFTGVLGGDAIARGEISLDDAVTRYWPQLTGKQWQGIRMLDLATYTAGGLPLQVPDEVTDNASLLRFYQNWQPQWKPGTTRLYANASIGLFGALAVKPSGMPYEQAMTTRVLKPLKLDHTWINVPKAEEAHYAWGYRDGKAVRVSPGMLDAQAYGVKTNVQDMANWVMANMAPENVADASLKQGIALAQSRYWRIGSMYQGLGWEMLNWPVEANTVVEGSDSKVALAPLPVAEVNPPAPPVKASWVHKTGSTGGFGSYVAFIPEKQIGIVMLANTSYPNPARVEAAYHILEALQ
metric-name: Ki (P99/AmpC of ECL, NCF)

Past entries and their recorded results:
[[record]]
smiles_representation = "COc1c(F)cc2c(c1C(=O)O)OB(O)[C@@H](Sc1nnc(N)s1)C2"
metric_name = "Ki (P99/AmpC of ECL, NCF)"
value_measured = "Y (0.1 μM to 1 μM)"

[[record]]
smiles_representation = "Nc1nnc(S[C@H]2Cc3ccc(OCC(=O)NC4CNC4)c(C(=O)O)c3OB2O)s1"
metric_name = "Ki (P99/AmpC of ECL, NCF)"
value_measured = "Y (0.1 μM to 1 μM)"

[[record]]
smiles_representation = "CC(C)COc1ccc2c(c1C(=O)O)OB(O)[C@@H](Sc1nncs1)C2"
metric_name = "Ki (P99/AmpC of ECL, NCF)"
value_measured = "Y (0.1 μM to 1 μM)"

[[record]]
smiles_representation = "O=C(O)c1c(F)ccc2c1OB(O)[C@@H](Sc1nncs1)C2"
metric_name = "Ki (P99/AmpC of ECL, NCF)"
value_measured = "Y (0.1 μM to 1 μM)"


Ask: # get_value(readout='Ki (P99/AmpC of ECL, NCF)', item= COc1ccc2c(c1C(=O)O)OB(O)[C@@H](Sc1nnc(N[C@H]3CCNC3)s1)C2 )
Result: Y (0.1 μM to 1 μM)

* * *

target: VIM-1 (Pseudomonas aeruginosa, UniProt A0A0F7KYQ8); construct: culture supernatant used unpurified; assay: biochemical; conditions: cleavage of nitrocefin (200 uM) by VIM-1 supernatant
pIC50: −log10 of the molar value.
metric-name: pIC50

[[record]]
compound = "O=C(O)c1c(OC(F)F)ccc2c1OB(O)[C@@H](Sc1nncs1)C2 [Compound 94]"
experimental_system = "VIM-1 (Pseudomonas aeruginosa, UniProt A0A0F7KYQ8)"
value_measured = "> 6.00"

[[record]]
compound = "O=CNc1cnc(S[C@H]2Cc3ccc(F)c(C(=O)O)c3OB2O)s1 [Compound 58]"
experimental_system = "VIM-1 (Pseudomonas aeruginosa, UniProt A0A0F7KYQ8)"
value_measured = "> 6.00"

[[record]]
compound = "Nc1nnc(S[C@H]2Cc3cc(F)c(F)c(C(=O)O)c3OB2O)s1 [Compound 37]"
experimental_system = "VIM-1 (Pseudomonas aeruginosa, UniProt A0A0F7KYQ8)"
value_measured = "≤ 6.00"

[[record]]
compound = "O=C(O)c1cccc2c1OB(O)[C@@H](Sc1nccs1)C2 [Compound 11]"
experimental_system = "VIM-1 (Pseudomonas aeruginosa, UniProt A0A0F7KYQ8)"
value_measured = "≤ 6.00"

[[record]]
compound = "CO[C@H]1Cc2ccc(F)c(C(=O)O)c2OB1O [Compound 19]"
experimental_system = "VIM-1 (Pseudomonas aeruginosa, UniProt A0A0F7KYQ8)"
value_measured = "> 6.00"


Ask: Would you kindly share the measured pIC50 for Cn1cnnc1S[C@H]1Cc2ccc(F)c(C(=O)O)c2OB1O [Compound 24] ?
Result: ≤ 6.00

Ask: Similarly, Nc1nnc(S[C@H]2Cc3ccc(Cl)c(C(=O)O)c3OB2O)s1 [Compound 36] ?
Result: ≤ 6.00

Ask: Query O=C(O)c1cccc2c1OB(O)[C@@H](Sc1ccccc1)C2 [Compound 6] next
Result: > 6.00

Ask: Param item: O=C(O)c1c(F)ccc2c1OB(O)[C@@H](Sc1nnc(C(F)(F)F)s1)C2 [Compound 55]
Result: ≤ 6.00

Ask: O=C(O)c1cccc2c1OB(O)[C@@H](OCc1ccccc1)C2 [Compound 13] ?
Result: > 6.00
